- TARGET_OR_SYSTEM: BRM (Homo sapiens)
- Sequence (P51531 whole entry): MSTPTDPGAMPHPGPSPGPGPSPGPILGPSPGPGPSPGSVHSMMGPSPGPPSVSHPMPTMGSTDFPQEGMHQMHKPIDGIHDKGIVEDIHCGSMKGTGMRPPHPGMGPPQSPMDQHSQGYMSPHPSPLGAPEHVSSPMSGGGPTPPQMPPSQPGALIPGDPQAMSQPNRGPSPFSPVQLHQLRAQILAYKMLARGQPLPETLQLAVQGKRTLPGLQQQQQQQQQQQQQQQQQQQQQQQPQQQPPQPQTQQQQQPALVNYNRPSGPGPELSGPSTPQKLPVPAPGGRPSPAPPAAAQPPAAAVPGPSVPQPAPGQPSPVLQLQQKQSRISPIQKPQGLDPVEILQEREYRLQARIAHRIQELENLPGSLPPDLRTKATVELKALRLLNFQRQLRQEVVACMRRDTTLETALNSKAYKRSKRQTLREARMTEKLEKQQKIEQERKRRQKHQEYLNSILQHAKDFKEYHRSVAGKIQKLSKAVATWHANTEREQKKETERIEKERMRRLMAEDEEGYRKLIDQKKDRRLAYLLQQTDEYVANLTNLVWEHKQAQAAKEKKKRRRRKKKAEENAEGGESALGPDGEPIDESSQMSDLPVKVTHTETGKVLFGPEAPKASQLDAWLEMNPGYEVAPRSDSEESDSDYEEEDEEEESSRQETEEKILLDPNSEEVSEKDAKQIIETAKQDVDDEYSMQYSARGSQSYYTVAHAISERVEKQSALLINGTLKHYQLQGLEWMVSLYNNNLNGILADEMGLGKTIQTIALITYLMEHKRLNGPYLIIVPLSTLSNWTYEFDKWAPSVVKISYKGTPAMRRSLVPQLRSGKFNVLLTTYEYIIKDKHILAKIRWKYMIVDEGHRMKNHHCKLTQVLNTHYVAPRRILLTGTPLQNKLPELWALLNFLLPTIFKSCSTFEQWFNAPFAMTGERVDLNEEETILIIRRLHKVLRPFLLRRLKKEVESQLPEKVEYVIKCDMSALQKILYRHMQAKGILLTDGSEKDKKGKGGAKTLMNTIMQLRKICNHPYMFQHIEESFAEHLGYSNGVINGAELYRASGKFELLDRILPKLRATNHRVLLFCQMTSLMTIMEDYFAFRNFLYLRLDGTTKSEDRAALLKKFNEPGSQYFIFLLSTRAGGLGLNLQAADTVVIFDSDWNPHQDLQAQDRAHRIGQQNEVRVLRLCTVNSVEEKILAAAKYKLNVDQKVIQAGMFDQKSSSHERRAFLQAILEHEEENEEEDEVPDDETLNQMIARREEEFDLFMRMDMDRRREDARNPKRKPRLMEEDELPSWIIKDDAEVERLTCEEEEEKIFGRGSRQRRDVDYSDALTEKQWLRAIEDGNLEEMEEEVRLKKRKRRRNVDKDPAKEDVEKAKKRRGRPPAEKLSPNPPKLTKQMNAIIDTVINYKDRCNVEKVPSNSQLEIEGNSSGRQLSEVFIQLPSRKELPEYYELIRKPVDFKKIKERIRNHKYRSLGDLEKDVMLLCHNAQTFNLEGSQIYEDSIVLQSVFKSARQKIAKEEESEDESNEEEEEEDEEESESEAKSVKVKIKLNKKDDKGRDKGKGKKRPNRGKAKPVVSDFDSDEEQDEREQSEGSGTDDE
- ASSAY_SUMMARY: ATPase catalytic activity assay (ADP-Glo), BRM
- CONDITION_PARAMETERS: 30 nM BRM, 400 μM ATP
OBSERVED_PROPERTY: BRM Max % Inhibition (%)
Supply the numeric figure in %, leaving out any unit text.

MOL_SMILES	OBSERVED_PROPERTY	UNIT_LABEL	RESULT
COc1nn(C)cc1-c1cnc2cnc(CNC(=O)c3ccc4c(c3)[C@](C)(F)COC4)cc2c1	BRM Max % Inhibition	%	97
C[C@@]1(C#N)COCc2ccc(C(=O)NCc3cc4nc(-c5ccnc(C6COC6)n5)ccc4cn3)cc21	BRM Max % Inhibition	%	96
C[C@@]1(F)COCc2ccc(C(=O)NCc3cc4nc(-c5ccnc(C6CC6)n5)cnc4cn3)cc21	BRM Max % Inhibition	%	97

Now, please, on to the next molecule.
Short answer for `Cn1cc(-c2ccc3cnc(CNC(=O)c4ccc5c(c4)[C@](C)(C#N)COC5)cc3n2)c(F)n1` : BRM Max % Inhibition was 90
